Entry source: ChEMBL document CHEMBL1157539

Please respond with reported Inhibition for every item in the list.
# System: Plasmodium falciparum
# Protocol summary: GSK_TCMDC: Inhibition of Plasmodium falciparum Dd2 in whole red blood cells, using parasite LDH activity as an index of growth. Test compounds present at 2uM
# Type: functional
Kindly answer with a numeric value in %, unit omitted.

### Prompt // fetch Plasmodium falciparum Inhibition for CC(NC(=O)c1cc(-c2ccccc2)nc2c1cnn2C(C)C)C1CC1 (configuration not stated)
### Response 88

### Prompt Another molecule to check: COc1ccc(Cl)c(CC2c3cc(O)c(Cl)cc3CCN2C)c1.Cl (configuration not stated)
### Response 72

### Prompt Another molecule to check: CC(Oc1ccc(C(=O)c2ccc(F)cc2)cc1)C(=O)N1CCc2ccccc21 (configuration not stated)
### Response 95

### Prompt Another molecule to check: CCCCc1ccc(S(=O)(=O)Nc2ccc3c(c2)CCN(Cc2c[nH]c4cnccc24)CC3)cc1.O=C(O)C(F)(F)F
### Response 12

### Prompt Another molecule to check: NC(=O)c1cccc(C(=O)Nc2cccc(-c3csc(-c4nc5ccccc5[nH]4)c3)c2)c1
### Response 92

### Prompt Another molecule to check: CCCNCc1ccc(-c2ccc(CN(CCOC)C(=O)c3nn(-c4ccccc4)nc3C)cc2)nc1.O=C(O)C(F)(F)F
### Response 71

### Prompt Another molecule to check: O=c1c2ccccc2[nH]c2cc(Cl)ccc12
### Response 86

====

# Test system: HepG2
# Protocol summary: GSK_TCMDC: Percent inhibition of human HepG2 cell line. Test compounds present at 10uM.
# Type: functional
Please respond with reported Inhibition for every item in the list.
Kindly answer with a numeric value in %, unit omitted.

### Prompt Using the record for CC(C)C[C@@H](CNC[C@H](CC(C)C)NC(=O)OC(C)(C)C)NC(=O)OC(C)(C)C , report its Inhibition.
### Response 4

### Prompt Another compound to check: Cl.Oc1cccc(Nc2nc(NCC3CCCO3)c3ccccc3n2)c1 (stereo unspecified)
### Response 0

### Prompt Another compound to check: COc1ccc2c(NN=Cc3ccncc3)ccnc2c1
### Response 0

### Prompt Another compound to check: CN(C)CCC1CCN(CCS(=O)(=O)c2cccc(Nc3ccc(-c4cccc(F)c4)cn3)c2)CC1
### Response 94

### Prompt Another compound to check: COc1cccc(C(O)CNc2ccnc(Nc3cccc(-c4csc(C)n4)c3)n2)c1 (stereo unspecified)
### Response 38

### Prompt Another compound to check: COc1ccc(-c2ccc(NC(=O)c3ccc(C#N)cc3)cc2)cc1CN1CCN(C)CC1.O=C(O)C(F)(F)F
### Response 21

### Prompt Another compound to check: O=c1cc(NCCC(CNCc2ccoc2)NCc2cc(Br)cc(Br)c2)[nH]c2ccccc12 (stereo unspecified)
### Response 0

### Prompt Another compound to check: O=c1cc(-c2ccc3ccccc3c2)[nH]c2ccccc12
### Response 25

### Prompt Another compound to check: COc1ccc(C=NNc2cc(C)nc3ccc(OC)cc23)c(OC)c1
### Response 23

### Prompt Another compound to check: CC1(C)N=C(N)N=C(N)N1c1ccc(Oc2ccc(Cl)cc2)c(Cl)c1
### Response 13

### Prompt Another compound to check: CC(=O)Nc1ccc(C(=O)Nc2cccc(-c3ccc(-c4nc5cc(C(F)(F)F)ccc5[nH]4)s3)c2)cn1
### Response 42

### Prompt Another compound to check: O=C(Nc1ccc([N+](=O)[O-])cc1O)Nc1ccccc1Oc1ccccc1
### Response 45

### Prompt Another compound to check: CCOC(=O)c1ccc(NC(=O)Nc2cccc(-c3ccc(-c4nc5cc(F)ccc5[nH]4)cc3)c2)cc1
### Response 40

### Prompt Another compound to check: FC(F)(F)c1cnc(Sc2nnc(-c3ccncc3)o2)c(Cl)c1
### Response 10

### Prompt Another compound to check: O=C(O)C(F)(F)F.Oc1ccc(CCNc2nc(NCCCOc3cccc(-c4ccccc4)c3)nc(N3CCNCC3)n2)cc1
### Response 40

### Prompt Another compound to check: Cc1ccc(O)cc1Nc1ccnc2ccc(-c3cccc(CNCCN(C)C)c3)cc12
### Response 0

### Prompt Another compound to check: CN1CCN(CCCN(Cc2csc(-c3ccc(CNCc4ccccc4)cc3)n2)S(=O)(=O)c2ccccc2Cl)CC1.O=C(O)C(F)(F)F
### Response 13

### Prompt Another compound to check: N=c1[nH]c2cccc3ccc4cccc1c4c32
### Response 26

### Prompt Another compound to check: COc1ccc2nccc([C@@H](O)CN3CCC(NCc4nc5ccccc5[nH]4)CC3)c2c1.O=C(O)C(=O)O
### Response 41

### Prompt Another compound to check: COc1cc(N)cc2sc(N)nc12
### Response 0

### Prompt Another compound to check: COc1c(CN2CCCC2)cccc1-c1cc2c(-c3ccc(C(=O)O)c(C(C)C)c3)ccnc2[nH]1.O=C(O)C(F)(F)F
### Response 56

====

Please respond with reported Inhibition for every item in the list.
# Test system: Plasmodium falciparum
# Protocol summary: GSK_TCMDC: Inhibition of Plasmodium falciparum 3D7 in whole red blood cells, using parasite LDH activity as an index of growth. Test compounds present at 2uM
# Assay type: functional
Kindly answer with a numeric value in %, unit omitted.

### Prompt Using the record for Cc1[nH]c(C)c(-c2ccc(-c3ccccc3)nc2)c(=O)c1Br , report its Inhibition.
### Response 96

### Prompt Another compound to check: O=C(/C=C/c1cc(C(F)(F)F)ccc1F)NCCCCCN1CCC(c2c[nH]c3ccccc23)CC1
### Response 88

### Prompt Another compound to check: Cc1ccc2nc(N(CCCn3ccnc3)C(=O)C=Cc3cccs3)sc2c1.Cl
### Response 100

### Prompt Another compound to check: CC(Oc1ccc(Cl)cc1)C(=O)N(C)C1CCN(CCCCCNC(=O)/C=C/c2ccc(Cl)c(Cl)c2)CC1 (centres undefined)
### Response 85

### Prompt Another compound to check: Cc1c(C)c2c(c(C)c1O)CC[C@](C)(C(=O)N1CCC(CCN3CCC(c4c[nH]c5ccccc45)CC3)CC1)O2
### Response 99

### Prompt Another compound to check: Cc1c(Cn2ncc(N3CC(C)NC(C)C3)c(Cl)c2=O)cccc1NC(=O)Nc1ccc(-c2ccccc2)cc1.O=C(O)C(F)(F)F (centres undefined)
### Response 97

### Prompt Another compound to check: O=C(/C=C/c1ccc(Cl)c(Cl)c1)NCCCCCN1CCC(NC(=O)Nc2ccccc2F)CC1
### Response 95

### Prompt Another compound to check: CN(C)CCNCc1cccc(-c2cccc(-c3nc4ccccc4[nH]3)c2)c1.O=C(O)C(F)(F)F
### Response 100

### Prompt Another compound to check: CCOC(=O)CNCC(=O)c1ccc(OCc2ccccc2)cc1.Cl
### Response 95

### Prompt Another compound to check: COc1ccc2c(NN=Cc3ccccc3F)ccnc2c1
### Response 98

### Prompt Another compound to check: COc1ccc2c(c1)nc(CNC(=N)N)n2Cc1ccc(Cl)cc1.Cl
### Response 100

### Prompt Another compound to check: Cc1cccc2nc(-c3cccc(-c4cccc(CNCCc5ccncc5)c4)c3)[nH]c12.O=C(O)C(F)(F)F
### Response 100

### Prompt Another compound to check: COCCNCc1cccc(-c2ccc3c(Nc4ccc(Oc5ccccc5)cc4)ccnc3c2)c1
### Response 100

### Prompt Another compound to check: COc1ccc(-c2cccc(NC(=O)c3cccc(Cl)c3)c2)cc1CNC(C)C.O=C(O)C(F)(F)F
### Response 100

====

Please respond with reported Inhibition for every item in the list.
# System: HepG2
# Protocol summary: GSK_TCMDC: Percent inhibition of human HepG2 cell line. Test compounds present at 10uM.
# Type: functional
Kindly answer with a numeric value in %, unit omitted.

### Prompt Using the record for O=C(NCc1ccccc1F)c1ccc(N2CCC(NCc3cccc(-n4cccn4)c3)CC2)cc1 , report its Inhibition.
### Response 9

### Prompt Another compound to check: Cl.OCCNc1nc(Nc2cccc(O)c2)nc2ccccc12
### Response 3

### Prompt Another compound to check: Br.CC1(C)NC(N)=NC(=N)N1OCCOc1ccc2ccccc2c1
### Response 70

### Prompt Another compound to check: Cc1noc(C)c1-c1cccc(CNCc2ccc(-c3ccc(-c4nc5cc(F)ccc5[nH]4)s3)cc2)c1.O=C(O)C(F)(F)F
### Response 45

### Prompt Another compound to check: CC(C)COc1ccc(Cl)cc1Cc1nc(-c2nc3ccc(CN4CCN(C)CC4)cc3[nH]2)co1.Cl
### Response 5

### Prompt Another compound to check: CC(CCc1ccc(OCc2ccccc2)cc1)NCC(O)c1ccccc1 (configuration not stated)
### Response 9

### Prompt Another compound to check: CCC(CO)NCC(O)Cn1c2ccc(Br)cc2c2cc(Br)ccc21 (configuration not stated)
### Response 18
